Experiment notes: Second-order rate constant (M-1 s-1) for the alkaline hydrolysis in water at 30 degrees C
Settings: buffer
Measure name: kOH (M⁻¹ s⁻¹)
Give your result in M⁻¹ s⁻¹ as a bare value.

Compound	Measure name	Endpoint unit	Recorded value
CN1CCCC1=O [METHYLPYRROLIDONE]	kOH	M⁻¹ s⁻¹	3.07
CC(=O)N(C)S(=O)(=O)Cc1ccccc1	kOH	M⁻¹ s⁻¹	1.3

Quick check: kOH of O=C1CCCO1 [BUTYROLACTONE] ?
1.31

Bench note: what kOH did "CC(C)[C@@H]1C(=O)N(S(C)(=O)=O)[C@@H]2CCN(C(=O)c3coc(CN4CCCC4)n3)[C@H]21" show?
0.08

I have this compound here, CCC[C@H](NC(=O)N1C(=O)C(CC)(CC)C1Oc1ccc(C(=O)N2CCN(C)CC2)cc1)c1ccc2c(c1)OCO2 (some centres undefined) , and I need its recorded kOH.
0.027

Fill in: kOH of "CC(=O)N(C)C(C)=O" is ___
1.54

Return reported kOH; argument: "O=C1c2ccccc2S(=O)(=O)N1Cc1ccccc1"
4.06

I would be grateful if you could share the reported kOH for O=C1CCCN1 [2-PYRROLIDONE] .
1.2

Please report the recorded kOH for "CC(C)[C@@H]1C(=O)N(S(C)(=O)=O)[C@@H]2CCN(C(=O)/C=C/CN3CCCCC3)[C@H]21" .
0.07

Returns the measured kOH for the input compound. Input: "O=C1CCCN1c1ccccc1"
0.000013

So what's the measured kOH for this one? "CC(C)[C@@H]1C(=O)N(S(C)(=O)=O)[C@@H]2CCN(C(=O)C3CN(CC(C)(C)C)C3)[C@H]21"
0.0601

Given the entry CCOC(C)=O [ETHYL ACETATE] , report its measured kOH.
0.164

Name the recorded kOH for C=CC[C@H]1C(=O)OC2CCN(C(=O)OCc3ccccc3)[C@@H]21 (some centres undefined) .
0.252

What kOH value was documented for this compound, "CN1C(=O)CCC1=O" ?
0.825
